- assayed.system: Single-stranded DNA cytosine deaminase (Homo sapiens)
- test.summary: Primary qHTS assay for inhibitors of Activation Induced Cytidine Deaminase (AID): AID signal; further: nearly all actives have a fitted effect of over 25% in size
- condition.summary: AID deamination FRET fluorescence, UDG-coupled, 4 h; series mostly up to 115 µM
In all, about 91,000 compounds went through this assay and about 290 (0.32%) were called active. Roughly 7% stayed inconclusive and do not appear here. The call rests on the fitted dose curve; in most records, active means well fitted inhibition curve with a large enough effect; inconclusive means small, poorly fitted or top-dose-only effect; inactive means no such curve, though single readings can be large or run the other way. The list comes from a sample in which actives are over-represented; it also holds close analogues and randomly drawn compounds.
Select the matching outcome among active, inactive

Record excerpt, results attached:
>>> class_assignment("O=C1c2ccccc2C(=Cc2ccc(Cl)cc2)c2ccccc21")
"inactive"
>>> class_assignment("COc1ccc(-c2nnc(SCCOc3ccc(Cl)cc3Cl)n2C(C)C)cc1")
"inactive"

State the result this test recorded for O=C(COc1ccccc1)NCc1ccc2c(c1)CCN2C(=O)c1ccc(F)cc1 . active

State the result this test recorded for CCCCCCCCS(=O)(=O)CCCCCCC(=O)O . inactive

State the result this test recorded for COc1ccc(CCC(=O)NCc2ccc3c(c2)CCN3C(=O)c2ccc(F)cc2)cc1 . inactive

State the result this test recorded for CN(Cc1cccc(C(F)(F)F)c1)C1CCN(C(=O)c2cncc(Br)c2)CC1 . inactive

State the result this test recorded for COc1cc(C(=O)Nc2ccc(C(=O)O)cc2)c2ccccc2n1 . inactive

State the result this test recorded for COc1ccc(C2Nc3ccccc3C(=O)N2c2ccc(C)cc2)cc1CN1CCOCC1 (stereo unspecified) . inactive

State the result this test recorded for CCOC(=O)c1ccc(NC(=O)CCn2cnnn2)cc1 . inactive

State the result this test recorded for O=C(O)C1CCN(C(=O)Cn2ccc3c(Br)cccc32)CC1 . inactive

State the result this test recorded for CCn1ccc(C(=O)Nn2c(C)nc3sc4c(c3c2=O)CCC(C)C4)n1 (stereo unspecified) . inactive
